molecular target: T1, human Claudin18.2 (human); assay: FACS, Claudin18.2-HEK293 cells
T1 construct: also called CLDN18.2
Recorded metric: EC50
The reply should read as a number followed by its unit.

Binder	EC50
chimeric 232C5E3 (antibody, human IgG1, kappa, V domains shown, chimeric, human IgG1/kappa constant regions; also called 232C5E3-Chimeric) VH: QAYLQQSGAELVRSGASVKMSCKASGYTFTSHNIHWIKQTPGKGLEWIGYIYPGNGGTNYNQKFKAKATLTADTSSSTAYMQISSLTSEDSAVYFCARDYYGNSFAYWGQGTLVTVSA VL: DIMMTQSPSSLTETAGEKVSMSCKSSQSLLNSGNQKNYLTWYQQKPGQPPKLLIYWASTRESGVPDRFSGSGSGTDFTLTISSVQAEDLAVYYCQNGYRFPFTFGAGTKLELKR	0.317 µg/mL
chimeric 207F8G5 (antibody, human IgG1, kappa, V domains shown, chimeric, human IgG1/kappa constant regions; also called 207F8G5-Chimeric) VH: QAYLQQSGAELVRSGASVKMSCKASGFTFTSYNIHWVKQTPGQGLEWIGYISPGNGGSNYNLKFKDKATLTSATSSSTAYMQISSLTSEDSAVYFCATGRGFAYWGQGTLVTVSA VL: DIVMTQSPSSLTVTPGEKVTMSCKSSQSLFNSGNQKNYLIWYQQKPGQPPKLLIYRASTRDSGVPDRFTGSGSGTDFTLTISNVQAEDLAIYYCQNDYSYPLTFGAGTKLELKR	0.17 µg/mL

Please examine the following record next.
[ask] So what does the record say about EC50 for humanized 232C5E3-VL1.1 + VH1.2 (antibody, human IgG1, kappa, V domains shown, humanized, human IgG1/kappa constant regions) VH: QVQLVQSGAEVKKPGASVKVSCKASGYTFTSHNIHWIKQAPGQRLEWMGYIYPGNGGTNYNQKFKARVTITADTSASTAYMELSSLRSEDTAVYFCARDYYGNSFAYWGQGTLVTVSS VL: DIVMTQSPDSLAVSLGERATMSCKSSQSLLNSGNQKNYLTWYQQKPGQPPKLLIYWASTRESGVPDRFSGSGSGTDFTLTISSLQAEDVAVYYCQNGYRFPFTFGQGTKLEIKR ?
[reply] 0.212 µg/mL

Data origin, for the record: patent US20220073643A1
